Tested on: HCT-116 colon
method-notes: NCI-60 one-dose screen, 48 h (100 = growth as untreated, 0 = no growth, -100 = all killed)
run-conditions: 10 µM unless noted
Compounds without any hit were thinned out: in the full panel of roughly 83,000, 20% have a hit. Active and inactive are the calls of the source. How the source made its calls: active means growth percent below 10; inactive means the rest.
measured-attribute: growth

The following molecules have reported results that may help.
molecule=NS(=O)(=O)c1ccc(CCn2c(-c3ccc(C(=O)O)cc3)nc(-c3ccccc3)c2-c2ccccc2)cc1 measured="101% (inactive)"
molecule="C/C(CC1(O)C(=O)Nc2ccccc21)=N\\O (stereo not given)" measured="98.1% (inactive)"
molecule=O=C1/C(=C/C=C/c2ccco2)SC(=S)N1Cc1ccccc1 measured="91% (inactive)"
molecule=COc1cccc2c1[C@H](OC)[C@]13O[C@@]1(C2=O)[C@H](O)[C@H](C)[C@@](O)(C(=O)[C@@H]1O[C@H]1C)[C@@H]3O measured="-26.8% (active)"
molecule=COc1cc2cc(Oc3ccc(NC(=O)Nc4ccc(F)c(C(F)(F)F)c4)cc3)c(C)nc2cc1OCCN(C)C measured="107% (inactive)"

"Cn1cc(-c2nc(N)nnc2-c2c[nH]c3ccc(Br)cc23)c2cc(F)ccc21" has a reported growth of 100% (inactive)

"O=c1nc(Nc2ccc([N+](=O)[O-])cc2O)sc2ccccc12" has a reported growth of 20.2% (inactive)

"CC1=C(C)C(=O)C(Nc2ccc(C)c(C)c2)=C(Br)C1=O" has a reported growth of 34.7% (inactive)

COc1ccc(C2CC(c3cccc(OCCCCOc4cccc(C5=NN(C(C)=O)C(c6ccc(OC)cc6)C5)c4)c3)=NN2C(C)=O)cc1 (stereo not given) has a reported growth of 47.3% (inactive)

COc1ccc(C2c3[nH]c4ccc(Cl)cc4c3CCN2c2oc(CO)nc2C#N)cc1 (stereo not given) has a reported growth of 32.1% (inactive)
